# method-notes: Pharmacokinetics in rats after intravenous and oral gavage dosing, plasma LC-MS/MS
# Format: in vivo
# test-conditions: both sexes, Sprague-Dawley, rat, plasma; SD rats; 15 mg/kg oral gavage vs 1 mg/kg intravenous; read-out: Oral Bioavailability F (%)
readout: bioavailability (%)
Field format: number, assumed %, no unit text.

So what does the record say about bioavailability for O=c1cc(-c2ccccc2)oc2c(O)c(O)ccc12 [7,8-dihydroxyflavone, 7,8-dihydroxyflavone, reference compound] ?
1.9

----------
What log10 of AUC(0-t) was measured for each of the following?
# method-notes: Pharmacokinetics in rats after intravenous and oral gavage dosing, plasma LC-MS/MS
# Format: in vivo
# test-conditions: rat, in vivo; SD rats, plasma; 15 mg/kg oral gavage / 1 mg/kg intravenous; table does not state the route
Response schema: value (number) is log10 of AUC(0-t) in units of µM·h.

So what does the record say about log10 of AUC(0-t) for O=c1cc(C2CCNCC2)oc2c(O)c(O)ccc12 ?
-0.82

So what does the record say about log10 of AUC(0-t) for O=C(O)[C@H]1O[C@@H](Oc2c(O)ccc3c(=O)cc(-c4ccccc4)oc23)[C@H](O)[C@@H](O)[C@@H]1O ?
0.37

So what does the record say about log10 of AUC(0-t) for O=c1cc(C2CCNCC2)oc2c(F)c(F)ccc12 ?
1.01

So what does the record say about log10 of AUC(0-t) for O=c1cc(-c2ccccc2)oc2c(F)c(O)ccc12 ?
-0.74

So what does the record say about log10 of AUC(0-t) for COc1ccc2c(=O)cc(C3CCNCC3)oc2c1O ?
-0.48

So what does the record say about log10 of AUC(0-t) for O=c1cc(C2CCNCC2)oc2c(F)c(O)ccc12 ?
-0.60

Values compiled from patent EP4755877A1.
